# System name: Adenosine receptor A1 (Homo sapiens)
# Experiment notes: Displacement of [3H]DPCPX from recombinant human A1 adenosine receptor expressed in CHO cells at 10 uM after 120 mins by scintillation counting
# Type: cell-based
Measurement type: inhibition (%)
A number alone suffices; assume %.

Query: Which inhibition value is on record for Nc1scc(CN2CCN(c3ccncc3)CC2)c1C(=O)c1ccc(Cl)cc1 ?
Result: 1

Query: Next record, please: Nc1scc(CN2CCN(C(=O)Cc3ccc(Cl)cc3)CC2)c1C(=O)c1ccc(Cl)cc1
Result: 1

Query: Next record, please: Nc1scc(CN2CCN(Cc3ccc(Cl)cc3)CC2)c1C(=O)c1ccc(Cl)cc1
Result: 0

Query: Next record, please: Nc1scc(CN2CCN(Cc3ccc(F)cc3)CC2)c1C(=O)c1ccc(Cl)cc1
Result: 0

Query: Next record, please: Nc1scc(CN2CCN(c3cc(F)ccc3F)CC2)c1C(=O)c1ccc(Cl)cc1
Result: 1

* * *

# System name: Adenosine receptor A2a (Homo sapiens)
# Experiment notes: Displacement of [3H]ZM241385 from recombinant human A2A adenosine receptor expressed in CHO cells at 10 uM after 60 mins by scintillation counting
# Assay type: cell-based
What inhibition was measured for each of the following?
A number alone suffices; assume %.

Query: Which inhibition value is on record for Nc1scc(CN2CCC(c3ccc(Cl)cc3)CC2)c1C(=O)c1ccc(Cl)cc1 ?
Result: 0

Query: Next record, please: Nc1scc(CN2CCN(c3ccc(OC(F)(F)F)cc3)CC2)c1C(=O)c1ccc(Cl)cc1
Result: 0

Query: Next record, please: Nc1scc(CN2CCN(c3cccc(F)c3F)CC2)c1C(=O)c1ccc(Cl)cc1
Result: 0

Query: Next record, please: Nc1scc(CN2CCN(CCc3ccc(Cl)cc3)CC2)c1C(=O)c1ccc(Cl)cc1
Result: 0

Query: Next record, please: Nc1scc(CN2CCN(c3cccc(Cl)c3)CC2)c1C(=O)c1ccc(Cl)cc1
Result: 0

Query: Next record, please: Nc1scc(CN2CCN(c3c(F)cccc3F)CC2)c1C(=O)c1cccc(C(F)(F)F)c1
Result: 0

Query: Next record, please: Nc1scc(CN2CCN(c3c(F)cccc3F)CC2)c1C(=O)c1ccc(Cl)cc1
Result: 1

Query: Next record, please: Nc1scc(CN2CCN(c3ccccc3C(F)(F)F)CC2)c1C(=O)c1ccc(Cl)cc1
Result: 0

Query: Next record, please: COc1ccc(N2CCN(Cc3csc(N)c3C(=O)c3ccc(Cl)cc3)CC2)cc1
Result: 0

Query: Next record, please: Nc1scc(CN2CCN(c3cccc(F)c3)CC2)c1C(=O)c1ccc(Cl)cc1
Result: 1

Query: Next record, please: Nc1scc(CN2CCN(c3cc(F)ccc3F)CC2)c1C(=O)c1ccc(Cl)cc1
Result: 0

Query: Next record, please: Nc1scc(CN2CCN(c3c(F)cc(F)cc3F)CC2)c1C(=O)c1ccc(Cl)cc1
Result: 0

Query: Next record, please: Nc1scc(CN2CCN(c3cccc(F)c3)CC2)c1C(=O)c1cccc(C(F)(F)F)c1
Result: 0

Query: Next record, please: Nc1scc(CN2CCN(c3ccc(C(F)(F)F)cc3)CC2)c1C(=O)c1cccc(C(F)(F)F)c1
Result: 0

Query: Next record, please: Nc1scc(CN2CCN(c3cc(Cl)cc(Cl)c3)CC2)c1C(=O)c1ccc(Cl)cc1
Result: 0

Query: Next record, please: Nc1scc(CN2CCN(CCCc3ccc(Cl)cc3)CC2)c1C(=O)c1ccc(Cl)cc1
Result: 0

Query: Next record, please: Nc1scc(CN2CCN(CC(=O)c3ccc(Cl)cc3)CC2)c1C(=O)c1ccc(Cl)cc1
Result: 1

Query: Next record, please: Nc1scc(CN2CCN(c3ccc(Cl)c(C(F)(F)F)c3)CC2)c1C(=O)c1ccc(Cl)cc1
Result: 0

Query: Next record, please: Nc1scc(CN2CCN(c3ccc(F)cc3F)CC2)c1C(=O)c1ccc(Cl)cc1
Result: 0

Query: Next record, please: Nc1scc(CN2CCN(c3ccc(Cl)c(Cl)c3)CC2)c1C(=O)c1ccc(Cl)cc1
Result: 0

// data source = ChEMBL document CHEMBL1932980
